System: PIP tumor and PC3 tumor
assay-details: Biodistribution of 125I labeled compounds 17, 18, 26 and 27 in tumor bearing nude mice
Format: in vivo
condition-parameters: 1 h, organ with content
reported-metric: Biodistribution: Stomach* (% ID/g)

molecule	unit-text	test-result
O=C(O)CC[C@H](NC(=O)N[C@@H](CCCCNC(=O)[C@H](Cc1ccccc1)NC(=O)[C@H](CCC(=O)O)NC(=O)[C@H](CCC(=O)O)NC(=O)c1ccc([125I])cc1)C(=O)O)C(=O)O [[^125I]18]	% ID/g	0.46

(1) O=C(O)CC[C@H](NC(=O)N[C@@H](CCCCNC(=O)[C@H](Cc1ccccc1)NC(=O)COc1ccc(C[C@H](NC(=O)[C@H](CCC(=O)O)NC(=O)[C@H](CCC(=O)O)NC(=O)c2ccc([125I])cc2)C(=O)O)cc1)C(=O)O)C(=O)O [[^125I]27]
(2) O=C(O)CC[C@H](NC(=O)N[C@@H](CCCCNC(=O)[C@H](Cc1ccccc1)NC(=O)[C@H](CCC(=O)O)NC(=O)c1ccc([125I])cc1)C(=O)O)C(=O)O [[^125I]17]
(3) O=C(O)CC[C@H](NC(=O)N[C@@H](CCCCNC(=O)[C@H](Cc1ccccc1)NC(=O)COc1ccc(C[C@H](NC(=O)[C@H](CCC(=O)O)NC(=O)c2ccc([125I])cc2)C(=O)O)cc1)C(=O)O)C(=O)O [[^125I]26]
Prompt line: Form: Sort by [Biodistribution: Stomach*] Order [ ascending ] List each label, following the requested order.
Response line: 2, 3, 1
(2: 0.18 % ID/g, 3: 0.35 % ID/g, 1: 0.55 % ID/g)

====

Test system: PIP tumor and PC3 tumor
assay-details: Biodistribution of 125I labeled compounds 17, 18, 26 and 27 in tumor bearing nude mice
Format: in vivo
condition-parameters: 4 h
reported-metric: Biodistribution: Lung (% ID/g)

molecule	unit-text	test-result
O=C(O)CC[C@H](NC(=O)N[C@@H](CCCCNC(=O)[C@H](Cc1ccccc1)NC(=O)COc1ccc(C[C@H](NC(=O)[C@H](CCC(=O)O)NC(=O)[C@H](CCC(=O)O)NC(=O)c2ccc([125I])cc2)C(=O)O)cc1)C(=O)O)C(=O)O [[^125I]27]	% ID/g	1.86
O=C(O)CC[C@H](NC(=O)N[C@@H](CCCCNC(=O)[C@H](Cc1ccccc1)NC(=O)COc1ccc(C[C@H](NC(=O)[C@H](CCC(=O)O)NC(=O)c2ccc([125I])cc2)C(=O)O)cc1)C(=O)O)C(=O)O [[^125I]26]	% ID/g	2.08

(A) O=C(O)CC[C@H](NC(=O)N[C@@H](CCCCNC(=O)[C@H](Cc1ccccc1)NC(=O)[C@H](CCC(=O)O)NC(=O)[C@H](CCC(=O)O)NC(=O)c1ccc([125I])cc1)C(=O)O)C(=O)O [[^125I]18]
(B) O=C(O)CC[C@H](NC(=O)N[C@@H](CCCCNC(=O)[C@H](Cc1ccccc1)NC(=O)[C@H](CCC(=O)O)NC(=O)c1ccc([125I])cc1)C(=O)O)C(=O)O [[^125I]17]
Prompt line: Form: Entry with minimum Biodistribution: Lung (choose one): A / B Response format: the label of the selected entry.
Response line: B

====

System: PIP tumor and PC3 tumor
assay-details: Biodistribution of 125I labeled compounds 17, 18, 26 and 27 in tumor bearing nude mice
Format: in vivo
condition-parameters: 4 h
Procedure: Radioiodination and Purification: 100 μg of either precursor 13, 14, 22 or 23 were dissolved in 100 μL EtOH; 22 μL Na^125I (1033-1118 μCi in 0.1 N NaOH), 100 μL 1N HCl and 100 μL 3% H2O2 were added. […] For iv injection 150 μL of labeled solution was diluted with saline to 3.75 mL. […] Injected radioactivity was 2 to 3 μCi. Biodistribution study of [^125I]18, 27, 26, and 18 in tumor bearing nude mice were evaluated for their ability to localization of PSMA positive tumor (Tables 5, 6, 7 and 8). […]
reported-metric: Biodistribution: Heart (% ID/g)

compound	target-under-test	reported-metric	test-result
O=C(O)CC[C@H](NC(=O)N[C@@H](CCCCNC(=O)[C@H](Cc1ccccc1)NC(=O)[C@H](CCC(=O)O)NC(=O)[C@H](CCC(=O)O)NC(=O)c1ccc([125I])cc1)C(=O)O)C(=O)O [[^125I]18]	PIP tumor and PC3 tumor	Biodistribution: Heart	1.60

(I) O=C(O)CC[C@H](NC(=O)N[C@@H](CCCCNC(=O)[C@H](Cc1ccccc1)NC(=O)[C@H](CCC(=O)O)NC(=O)c1ccc([125I])cc1)C(=O)O)C(=O)O [[^125I]17]
(II) O=C(O)CC[C@H](NC(=O)N[C@@H](CCCCNC(=O)[C@H](Cc1ccccc1)NC(=O)COc1ccc(C[C@H](NC(=O)[C@H](CCC(=O)O)NC(=O)c2ccc([125I])cc2)C(=O)O)cc1)C(=O)O)C(=O)O [[^125I]26]
(III) O=C(O)CC[C@H](NC(=O)N[C@@H](CCCCNC(=O)[C@H](Cc1ccccc1)NC(=O)COc1ccc(C[C@H](NC(=O)[C@H](CCC(=O)O)NC(=O)[C@H](CCC(=O)O)NC(=O)c2ccc([125I])cc2)C(=O)O)cc1)C(=O)O)C(=O)O [[^125I]27]
Prompt line: Returns the items ordered by Biodistribution: Heart, from maximum to minimum. Labels, requested order.
Response line: III, II, I
(III: 1.36 % ID/g, II: 0.38 % ID/g, I: 0.11 % ID/g)

====

Test system: PIP tumor and PC3 tumor
assay-details: Biodistribution of 125I labeled compounds 17, 18, 26 and 27 in tumor bearing nude mice
Assay type: in vivo
condition-parameters: 1 h
reported-metric: Biodistribution: gland (% ID/g)

The examples below pair each entry with its known result.
molecule	reported-metric	test-result
O=C(O)CC[C@H](NC(=O)N[C@@H](CCCCNC(=O)[C@H](Cc1ccccc1)NC(=O)[C@H](CCC(=O)O)NC(=O)c1ccc([125I])cc1)C(=O)O)C(=O)O [[^125I]17]	Biodistribution: gland	0.81
O=C(O)CC[C@H](NC(=O)N[C@@H](CCCCNC(=O)[C@H](Cc1ccccc1)NC(=O)[C@H](CCC(=O)O)NC(=O)[C@H](CCC(=O)O)NC(=O)c1ccc([125I])cc1)C(=O)O)C(=O)O [[^125I]18]	Biodistribution: gland	4.03

(A) O=C(O)CC[C@H](NC(=O)N[C@@H](CCCCNC(=O)[C@H](Cc1ccccc1)NC(=O)COc1ccc(C[C@H](NC(=O)[C@H](CCC(=O)O)NC(=O)[C@H](CCC(=O)O)NC(=O)c2ccc([125I])cc2)C(=O)O)cc1)C(=O)O)C(=O)O [[^125I]27]
(B) O=C(O)CC[C@H](NC(=O)N[C@@H](CCCCNC(=O)[C@H](Cc1ccccc1)NC(=O)COc1ccc(C[C@H](NC(=O)[C@H](CCC(=O)O)NC(=O)c2ccc([125I])cc2)C(=O)O)cc1)C(=O)O)C(=O)O [[^125I]26]
Prompt line: // compare measured Biodistribution: gland, left A , right B , return larger Label of pick, please.
Response line: B
(B: 6.97 % ID/g, A: 3.59 % ID/g)

====

Tested on: PIP tumor and PC3 tumor
assay-details: Biodistribution of 125I labeled compounds 17, 18, 26 and 27 in tumor bearing nude mice
Type: in vivo
condition-parameters: 4 h
reported-metric: Biodistribution: Kidney (% ID/g)

For orientation, consider the following solved cases.
compound	reported-metric	test-result
O=C(O)CC[C@H](NC(=O)N[C@@H](CCCCNC(=O)[C@H](Cc1ccccc1)NC(=O)[C@H](CCC(=O)O)NC(=O)[C@H](CCC(=O)O)NC(=O)c1ccc([125I])cc1)C(=O)O)C(=O)O [[^125I]18]	Biodistribution: Kidney	69.39
O=C(O)CC[C@H](NC(=O)N[C@@H](CCCCNC(=O)[C@H](Cc1ccccc1)NC(=O)COc1ccc(C[C@H](NC(=O)[C@H](CCC(=O)O)NC(=O)c2ccc([125I])cc2)C(=O)O)cc1)C(=O)O)C(=O)O [[^125I]26]	Biodistribution: Kidney	114.69

(1) O=C(O)CC[C@H](NC(=O)N[C@@H](CCCCNC(=O)[C@H](Cc1ccccc1)NC(=O)COc1ccc(C[C@H](NC(=O)[C@H](CCC(=O)O)NC(=O)[C@H](CCC(=O)O)NC(=O)c2ccc([125I])cc2)C(=O)O)cc1)C(=O)O)C(=O)O [[^125I]27]
(2) O=C(O)CC[C@H](NC(=O)N[C@@H](CCCCNC(=O)[C@H](Cc1ccccc1)NC(=O)[C@H](CCC(=O)O)NC(=O)c1ccc([125I])cc1)C(=O)O)C(=O)O [[^125I]17]
Prompt line: Which record shows the lower Biodistribution: Kidney: the first, 1 , or the second, 2 ? When you have decided, please share the label of that item.
Response line: 2
(2: 25.41 % ID/g, 1: 138.08 % ID/g)
